System: HCC 2998
Experiment: NCI tumour cell line growth inhibition, 48 h
The source made the active and inactive calls. Rule as the data show it: active = GI50 up to about 1.1 µM and inactive = higher.
Respond using exactly one of the listed classes: true for active, false for inactive

Answered cases to consult:
Nc1ncnc2c1ncn2[C@@H]1C[C@H](NO)[C@@H](O)[C@H]1O | false
COC1(c2ccccc2)N=C(S)NN=C1c1ccccc1 (stereo unspecified) | false
NC1CCCCC1.O=P(O)(O)C(CSc1ccccc1)P(=O)(O)O | false
CCCCCCCCCCCCCCCC(=O)NC1CCc2cc(O)c(O)c(O)c2-c2ccc(SC)c(=O)cc21 (stereo unspecified) | false
O=C1CC2CCN(C(=O)c3ccccc3)CC2CCN1.O=C1CCC2CC(C(=O)c3ccccc3)CCC2CN1 (stereo unspecified) | false

Data request: // param item: O=[N+]([O-])c1cc(/C=N/NS(=O)(=O)c2ccc(F)cc2)c(O)c([N+](=O)[O-])c1 ; yields the recorded call
Data returned: false

Data request: // param item: CCOC(=O)COc1cccc2occc(=O)c12 ; yields the recorded call
Data returned: false

Data request: // param item: CCOC(=O)CSc1nc(-c2ccccc2)c(C#N)c(=O)[nH]1 ; yields the recorded call
Data returned: false

Data request: // param item: ClCCC[Si]12OCCN(CCO1)CCO2 ; yields the recorded call
Data returned: false

Data request: // param item: CCCCCCCCCCCCCCCCCCOCC(COCCOCC[N+]1(CCCCCC(=O)[O-])CCCC1)Oc1ncccn1 (stereo unspecified) ; yields the recorded call
Data returned: false

Data request: // param item: Cc1c2cc(Cl)ccc2n2c(=O)c3ccccc3[nH]c(=O)c12 ; yields the recorded call
Data returned: false

Data request: // param item: CN(C)c1ccc(C2SCC(=O)N2NS(=O)(=O)c2cccc(C(=O)O)c2)cc1 (stereo unspecified) ; yields the recorded call
Data returned: false

Data request: // param item: C=C1C(=O)O[C@H]2C1C[C@@H](O)[C@@]1(C)OC1CC[C@@]1(C)O[C@H]21 (stereo partly specified) ; yields the recorded call
Data returned: false

Numbers sourced from ChEMBL document CHEMBL1201862.
